Target: Tyrosine-protein phosphatase non-receptor type 1 (Homo sapiens)
Sequence (P18031 whole entry): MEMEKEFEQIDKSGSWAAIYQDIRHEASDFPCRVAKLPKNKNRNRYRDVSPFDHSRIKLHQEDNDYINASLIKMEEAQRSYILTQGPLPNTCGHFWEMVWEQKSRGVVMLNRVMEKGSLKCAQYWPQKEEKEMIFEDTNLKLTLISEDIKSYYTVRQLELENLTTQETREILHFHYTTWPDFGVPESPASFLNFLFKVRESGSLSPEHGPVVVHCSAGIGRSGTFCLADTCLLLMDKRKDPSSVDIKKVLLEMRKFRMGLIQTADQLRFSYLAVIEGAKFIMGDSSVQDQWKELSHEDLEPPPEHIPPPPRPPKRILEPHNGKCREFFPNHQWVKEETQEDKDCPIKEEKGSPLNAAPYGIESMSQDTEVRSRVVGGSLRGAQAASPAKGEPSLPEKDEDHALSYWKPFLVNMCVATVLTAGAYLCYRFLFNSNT
Test: Reversible inhibition of recombinant full length PTP1B (unknown origin) assessed as p-nitrophenyl phosphate conversion to p-nitrophenol after 10 mins by spectrophotometric analysis
pKi: −log10 of the molar value.
Examples of molecules with documented pKi follow.

{"molecular string": "CCCOc1c2cccc1Cc1cc(C(P(=O)(O)O)P(=O)(O)O)cc(c1O)Cc1cccc(c1OCCC)Cc1cccc(c1O)C2", "pKi": 6.13}
{"molecular string": "CCCOc1c2cccc1Cc1cc(C(O)(P(=O)(O)O)P(=O)(O)O)cc(c1O)Cc1cccc(c1OCCC)Cc1cccc(c1O)C2", "pKi": 6.17}
